target-system: human CD33 S355A (human, UniProt P20138 18-364)
Sequence (P20138 18-364 S355A limits assumed): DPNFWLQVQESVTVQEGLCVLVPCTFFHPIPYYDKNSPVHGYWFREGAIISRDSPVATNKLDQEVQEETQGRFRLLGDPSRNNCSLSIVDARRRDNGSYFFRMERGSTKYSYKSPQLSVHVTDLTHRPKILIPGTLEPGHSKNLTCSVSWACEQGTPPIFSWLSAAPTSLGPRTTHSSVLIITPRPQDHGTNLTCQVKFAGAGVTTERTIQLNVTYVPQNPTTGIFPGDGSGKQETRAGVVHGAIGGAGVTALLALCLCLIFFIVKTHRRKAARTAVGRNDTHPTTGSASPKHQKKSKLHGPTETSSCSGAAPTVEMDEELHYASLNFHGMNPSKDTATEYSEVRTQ
assay-overview: flow cytometry, alanine scan

binder: Refmab #3 (antibody, V domains shown, The alanine scan used IgG or Fab) VH: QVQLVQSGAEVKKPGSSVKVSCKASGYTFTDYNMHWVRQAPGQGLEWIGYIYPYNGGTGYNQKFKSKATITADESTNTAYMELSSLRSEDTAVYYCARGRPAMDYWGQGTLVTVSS VL: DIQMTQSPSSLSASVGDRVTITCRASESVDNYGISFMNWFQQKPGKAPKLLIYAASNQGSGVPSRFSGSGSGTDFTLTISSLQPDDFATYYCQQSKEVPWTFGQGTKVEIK
Mean % WT Binding: 85.6 % of WT

binder: Refmab #1 (antibody, V domains shown, The alanine scan used IgG or Fab; also called hP67.6) VH: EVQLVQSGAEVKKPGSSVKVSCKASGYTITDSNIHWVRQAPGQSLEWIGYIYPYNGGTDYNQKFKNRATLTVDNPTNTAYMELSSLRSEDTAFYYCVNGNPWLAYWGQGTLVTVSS VL: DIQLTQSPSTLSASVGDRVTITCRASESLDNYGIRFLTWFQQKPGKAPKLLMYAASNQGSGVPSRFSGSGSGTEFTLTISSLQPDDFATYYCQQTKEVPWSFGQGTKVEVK
Mean % WT Binding: 86.1 % of WT

binder: Refmab #4 (antibody, V domains shown, The alanine scan used IgG or Fab) VH: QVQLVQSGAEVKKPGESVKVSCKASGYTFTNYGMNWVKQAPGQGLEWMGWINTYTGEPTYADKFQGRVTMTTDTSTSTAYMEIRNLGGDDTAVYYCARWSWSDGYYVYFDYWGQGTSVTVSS VL: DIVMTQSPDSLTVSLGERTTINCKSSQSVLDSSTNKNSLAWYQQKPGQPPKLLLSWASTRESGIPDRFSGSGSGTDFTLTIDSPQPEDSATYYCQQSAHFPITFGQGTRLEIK
Mean % WT Binding: 91.5 % of WT

binder: Refmab #2 (antibody, V domains shown, The alanine scan used IgG or Fab) VH: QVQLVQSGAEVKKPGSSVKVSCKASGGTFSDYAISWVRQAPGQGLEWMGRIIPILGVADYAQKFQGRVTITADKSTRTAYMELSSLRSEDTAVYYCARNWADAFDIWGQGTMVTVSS VL: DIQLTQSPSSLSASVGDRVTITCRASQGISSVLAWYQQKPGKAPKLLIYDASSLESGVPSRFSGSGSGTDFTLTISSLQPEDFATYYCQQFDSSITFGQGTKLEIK
Mean % WT Binding: 105 % of WT
